TARGET_DESC: BRD4 (BRD4^Tandem) (Homo sapiens)
Construct: BRD4^Tandem (residues 43–459), BD1 and BD2 with native linker; with DCAF16–DDB1(ΔBPB)–DDA1
TEST_SUMMARY: cryo-EM ternary structure ([…] Å); alphaLISA displacement ([…] with DCAF16, […] alone); ITC; TR-FRET
OBSERVATION_TYPE: IC50 (nM)
Unit nM implied. Number only.

Field IC50 (system: BRD4 (BRD4^Tandem) (Homo sapiens)) for entry COC(=O)C[C@@H]1N=C(c2ccc(-c3ccc(C(=O)NCc4ccc(S(=O)(=O)Nc5ccc(C)c6c(C#N)c[nH]c56)cc4)cc3)cc2)c2c(sc(C)c2C)-n2c(C)nnc21 = 12.8
